test system: Nucleic Acid; test: Binding affinity to G-quadruplex F21T DNA assessed as change in melting temperature at 3 uM under Na+ ionic conditions by FRET assay; assay type: nucleic-acid assay
READOUT_KIND: ΔTm

Known results for molecules:
{"columns": ["RECORD_SMILES", "ΔTm"],
 "data": [
  ["Oc1ccc(-c2nc3scc(-c4ccc(O)cc4)n3n2)cc1", "< 1 °C"],
  ["c1ccc(COc2ccc(-c3nc4scc(-c5ccc(OCc6ccccc6)cc5)n4n3)cc2)cc1", "< 1 °C"],
  ["O=C(NCCN1CCCCC1)c1ccc(-c2csc3nc(-c4ccc(O)cc4)nn23)cc1", "< 1 °C"],
  ["O=C(NCCN1CCCCC1)c1ccc(-c2csc3nc(-c4ccc(OCc5ccccc5)cc4)nn23)cc1", "< 1 °C"],
  ["O=C(NCCN1CCCCC1)c1ccc(-c2csc3nc(-c4ccc(OCCN5CCCCC5)cc4)nn23)cc1", "5 °C"],
  ["c1cc(-c2nc3scc(-c4ccc(OCCN5CCCCC5)cc4)n3n2)ccc1OCCN1CCCCC1", "2.1 °C"],
  ["CCOC(=O)c1ccc(-c2csc3nc(-c4ccc(OCc5ccccc5)cc4)nn23)cc1", "< 1 °C"]
]}

In the following, a different molecule is considered.
// fetch ΔTm given entry `O=C(NCCN1CCCCC1)c1ccc(-c2csc3nc(-c4ccc(OCCN5CCCC5)cc4)nn23)cc1`
5.9 °C

Values from ChEMBL document CHEMBL1136995
